experiment: Human HepG2 cell viability assay in 384 well format; format: toxicity, cell-based; parameters: dose 125 nL, time 70.5 hour; concentration not given beside the values; conditions: HepG2 cells, read-out: Inhibition
Values of cytotoxicity at 70.5 h strictly less than -10% map to yes (1), and values of at least -10% map to no (0).

Exercise: Does this molecule meet the criterion cytotoxicity at 70.5 h < -10%? CCOc1ccc(C(=O)CCC(=O)NCc2csc(N)n2)cc1C
Solution: yes (1)

Exercise: API: query returns whether the molecule falls strictly under -10% in cytotoxicity at 70.5 h. Query: Cn1nccc1NC(=O)CN1CCc2sccc2C1
Solution: yes (1)

Exercise: Does the reported cytotoxicity at 70.5 h of the following molecule sit strictly below -10%? O=C(NC1CCCC1)N1C[C@H]2CN(c3ccncc3)C[C@@]2(C(=O)O)C1
Solution: no (0)

Exercise: Just wondering, is cytotoxicity at 70.5 h of Cc1nnc2n1CCN(c1nn3cc(C(C)(C)C)nc3s1)C2 below -10%?
Solution: no (0)

Exercise: Please indicate whether the reported cytotoxicity at 70.5 h of O=C1CCCCN1CC(=O)N1CCCC(c2ccccc2)C1 (stereo unspecified) is strictly below -10%.
Solution: yes (1)

Exercise: Item CN(Cc1cccnc1)[C@@H]1CN(Cc2ccccn2)[C@@H]2CCCO[C@H]12 : cytotoxicity at 70.5 h beneath -10%, strictly?
Solution: no (0)

---

assay: Human HepG2 cell viability assay in 384 well format; type: toxicity, cell-based; design: dose 125 nL, time 70.5 hour; concentration not given beside the values; conditions: HepG2 cells, read-out: Inhibition
readout: cytotoxicity at 70.5 h (%)
Respond numerically; units are % and should not be typed.

Exercise: Reported cytotoxicity at 70.5 h for CC(O)CN1CCN(C(=O)CCOc2ccccc2F)CC1 (stereo unspecified) : what is it?
Solution: -17.1

Exercise: Reported cytotoxicity at 70.5 h, compound CO[C@@H]1CC[C@@H](N(C)C(=O)COc2ccc(F)cc2)[C@H]1O : ____
Solution: -28.5

Exercise: What value of cytotoxicity at 70.5 h has been reported for the following compound? CN1N=C(C(=O)N2CCCC(CCc3ccccc3)C2)CCC1=O (stereo unspecified)
Solution: -9.61

Exercise: What cytotoxicity at 70.5 h value was documented for this compound, COc1ccc(CNC(=O)c2nn(C)c3c2CS(=O)(=O)CC3)cc1OC ?
Solution: 1.56

Exercise: Param item = NCC1CCCCN1Cc1cc(O)c2cccc(F)c2n1 (stereo unspecified) ; retrieve measured cytotoxicity at 70.5 h.
Solution: 21.6

Exercise: Bench note: what cytotoxicity at 70.5 h did COCCCC(=O)N1CCC(Nc2cccnn2)CC1 show?
Solution: -10.4

---

experiment: Human HepG2 cell viability assay in 384 well format; format: toxicity, cell-based; parameters: dose 125 nL, time 70.5 hour; concentration not given beside the values; details: HepG2 cells, read-out: Inhibition
For each of the compounds below, state its cytotoxicity at 70.5 h.
Kindly answer with a numeric value in %, unit omitted.

Exercise: Item CC(=O)N1CCC(C(=O)Nc2nnc(C(F)(F)F)[nH]2)CC1 has what recorded cytotoxicity at 70.5 h?
Solution: -8.53

Exercise: Could you tell me which cytotoxicity at 70.5 h is on file for CNC(=O)[C@H]1C[C@@H]2CN(C(=O)NC(C)C)C[C@H]1O2 ?
Solution: 23

Exercise: Query: cytotoxicity at 70.5 h; subject: CC(=O)N1CCN(c2cc(C)ncn2)CC(CO)C1 (stereo not drawn)
Solution: -3.4

Exercise: I'd like to know its cytotoxicity at 70.5 h. The compound in question is CC(=O)N1CCC(c2nnc3ccc(C(=O)NCCN(C)C)cn23)C1 (stereo not drawn)
Solution: -10.5

Exercise: Which cytotoxicity at 70.5 h is listed for CC(C)(C)C(=O)NC[C@H]1Cn2c(-c3ccccc3)cnc2CO1 ?
Solution: -9.72

Exercise: Item O=C(CN1CCCC1Cn1cncn1)NC(C1CC1)C1CC1 (stereo not drawn) has what recorded cytotoxicity at 70.5 h?
Solution: -4.54

Exercise: For COc1ccc(C)cc1CN(C)CC(=O)NC1(C)CCS(=O)(=O)C1 (stereo not drawn) , what is its reported cytotoxicity at 70.5 h?
Solution: -15.5

Exercise: Requested field: cytotoxicity at 70.5 h. Item: N#Cc1ccsc1NC(=O)CN1CCn2c(nnc2C2CC2)C1
Solution: -6.74

Exercise: Query: cytotoxicity at 70.5 h; subject: COCC1c2nnn(C)c2CCN1C(=O)CCc1cccc(OC)c1 (stereo not drawn)
Solution: -3.47

Exercise: Endpoint output: cytotoxicity at 70.5 h of Cn1cnnc1S(=O)(=O)Cc1cc(Cl)c2c(c1)OCCO2 . Value?
Solution: -1.41

Exercise: Report cytotoxicity at 70.5 h for CCOc1ccc(C(=O)N2CCCC(n3ccnc3C)C2)cc1OC (stereo not drawn) please.
Solution: -7.46

Exercise: Consider the compound CN(C)C(=O)CN1C(=O)CCC12CCN(Cc1cccs1)CC2 and give its measured cytotoxicity at 70.5 h.
Solution: 9.34

Exercise: So what's the measured cytotoxicity at 70.5 h for this one? Cc1ncoc1C(=O)N1C[C@@H]2CN(CC3CC3)CCO[C@@H]2C1
Solution: 10.6

Exercise: So what does the record say about cytotoxicity at 70.5 h for CC(=O)N1C[C@@H]2CC[C@H](C1)N(S(=O)(=O)c1ccccc1Cl)C2 ?
Solution: -14.4

Exercise: Which cytotoxicity at 70.5 h value belongs to COc1ccccc1CCNC(=O)CC1(Cn2cnnn2)CCCCC1 ?
Solution: -20.4

Exercise: What value of cytotoxicity at 70.5 h has been recorded for this entry: COC1(CNC(=O)c2ccc(Cl)c(Cl)c2)CCSC1 (stereo not drawn)
Solution: -15

Exercise: May I ask what cytotoxicity at 70.5 h has been recorded for CCc1cnc(NCC(CC)N2CCOCC2)nc1 (stereo not drawn) ?
Solution: -6.68

Exercise: // lookup cytotoxicity at 70.5 h for COc1cccc2c1OCC(C(=O)N1Cc3ccccc3C1)C2 (stereo not drawn)
Solution: -1.1

Exercise: Given the compound CC(C)CC(C#N)NC(=O)COC1CCCCC1 (stereo not drawn) , what is its reported cytotoxicity at 70.5 h?
Solution: -8.86

Exercise: Any idea what cytotoxicity at 70.5 h was measured for CCOc1cccc(C2CC(=O)NCc3nc(N)sc32)c1 (stereo not drawn) ?
Solution: -11.2

Exercise: Record request: cytotoxicity at 70.5 h value, item Cc1cccc(CN2C[C@@H]3COC[C@]3(CNC(=O)c3ccno3)C2)n1
Solution: 7.45

Exercise: Returns the measured cytotoxicity at 70.5 h for the input compound. Input: CC(=O)N1CCN(C(=O)Nc2ccc(Cl)cc2)[C@H]2CS(=O)(=O)C[C@H]21
Solution: -2.86

Exercise: Entry N[C@@H]1CC[C@@H](Nc2nccc(CCC(F)(F)F)n2)C1 : reported cytotoxicity at 70.5 h = ?
Solution: -6.78

---

assay: Human HepG2 cell viability assay in 384 well format; assay type: toxicity, cell-based; design: dose 125 nL, time 70.5 hour; concentration not given beside the values; conditions: HepG2 cells, read-out: Inhibition
Consider the following compounds; for each one, report its cytotoxicity at 70.5 h.
Report the value in % with no unit label.

Exercise: Given the entry COCCN1CC[C@]2(CN(C(=O)c3ccc[nH]3)C[C@H]2C)C1=O , report its measured cytotoxicity at 70.5 h.
Solution: -7.41

Exercise: cytotoxicity at 70.5 h for OC1(CNCCSc2ccccn2)CCCNC1 (centres undefined) ?
Solution: -6.54

Exercise: # get_value(readout='cytotoxicity at 70.5 h', item= Cc1cc2n(n1)CC(CNC1CCN(Cc3ccccc3C)CC1)CN2 (centres undefined) )
Solution: 5.18

Exercise: Can you look up the measured cytotoxicity at 70.5 h of Cc1cccc2c(CCNC(=O)NCCC[S+](C)[O-])c[nH]c12 (centres undefined) for me?
Solution: -1.72

Exercise: Look up cytotoxicity at 70.5 h for this compound: O[C@@H]1CN(Cc2ccncc2)C[C@H]1Oc1ccccc1
Solution: -5.71

Exercise: Would you mind telling me what cytotoxicity at 70.5 h value was observed for O=C(O)[C@]12CCCN(Cc3ccncc3)C[C@H]1CN(c1ncccn1)C2 ?
Solution: 2.52

Exercise: Can you share its cytotoxicity at 70.5 h? I mean this compound: CCN(C(C)=O)c1nc(CN2CCN(c3nccs3)CC2)cs1
Solution: 23.5

Exercise: Would you kindly share the measured cytotoxicity at 70.5 h for CC(C)(CN1CCC(Cc2ccc(CO)cc2)C1)N1CCOCC1 (centres undefined) ?
Solution: -10.6

Exercise: So what's the measured cytotoxicity at 70.5 h for this one? Fc1ccc(-c2nc(CN3CCCC3Cn3cncn3)co2)cc1 (centres undefined)
Solution: 17.6

Exercise: What cytotoxicity at 70.5 h value was documented for this compound, c1cnnc(N2CCCC2CNCc2nc3ccccc3o2)c1 (centres undefined) ?
Solution: -9.74

Exercise: Data request, read-out cytotoxicity at 70.5 h, for Cc1ccccc1CSc1nc(=O)n(CCO)c2c1CCC2
Solution: -9.33

Exercise: Name the reported cytotoxicity at 70.5 h value associated with the compound Cc1nc(N2CCOCC2)nc2c1COCC21CCN(CC(C)C)C1 (centres undefined)
Solution: -5.39

Exercise: Consider the compound shown here: O=C(CCc1nnc2ccccn2c1=O)NCc1ccco1 What is its recorded cytotoxicity at 70.5 h?
Solution: 24.6

Exercise: Reported cytotoxicity at 70.5 h for CSc1ccc(CN2CCCC3(CNC(=O)c4ccccc4O3)C2)cc1 (centres undefined) : what is it?
Solution: 2.19

Exercise: cytotoxicity at 70.5 h for O=C(NCCCn1cccn1)N1CCCC1c1cccs1 (centres undefined) ?
Solution: -7.95

Exercise: Which cytotoxicity at 70.5 h value is on record for Cc1n[nH]c(C)c1NC(=O)CN1CCCC1c1noc(C2CC2)n1 (centres undefined) ?
Solution: -18.5

Exercise: Report cytotoxicity at 70.5 h for COc1ccc(C2CCCCCN2S(=O)(=O)N(C)C)cc1 (centres undefined) please.
Solution: -7.96

Exercise: cytotoxicity at 70.5 h lookup needed for CCCOc1cccc(NC(=O)NC2CCc3nc(C)nn3C2)c1 (centres undefined) , thanks.
Solution: -5.39

Exercise: For the compound shown here, O=C(COC[C@@H]1CC[C@H]2[C@H](CCN2Cc2ccco2)O1)N1CCCC1 , give the reported cytotoxicity at 70.5 h.
Solution: 24.3

Exercise: If you can, please state the reported cytotoxicity at 70.5 h value of Cc1ccc(NC2CCN(C(=O)c3ccc(C#N)cc3)CC2)nn1 .
Solution: -7.94

Exercise: Request the reported cytotoxicity at 70.5 h associated with COc1cc(-c2nc(C3CC3)nn2-c2ccnc(C)c2)nc(OC)n1
Solution: -14.3

Exercise: What value of cytotoxicity at 70.5 h has been recorded for this entry: O=C(O)c1csc(S(=O)(=O)N2CCN(Cc3ccc(Cl)cc3)CC2)c1
Solution: -12.5

Exercise: Fill in the blank: the reported cytotoxicity at 70.5 h of CCc1ncnc2c1CCN(C(=O)Cc1ccccn1)CC2 is ____.
Solution: -19.9

Exercise: Form field: reported cytotoxicity at 70.5 h of O=C(Cn1cc(C2CC2)nn1)NC(c1ccc(Cl)cc1)C1CC1 (centres undefined)
Solution: -8.06
